Entries and their pEC50
Target sequence: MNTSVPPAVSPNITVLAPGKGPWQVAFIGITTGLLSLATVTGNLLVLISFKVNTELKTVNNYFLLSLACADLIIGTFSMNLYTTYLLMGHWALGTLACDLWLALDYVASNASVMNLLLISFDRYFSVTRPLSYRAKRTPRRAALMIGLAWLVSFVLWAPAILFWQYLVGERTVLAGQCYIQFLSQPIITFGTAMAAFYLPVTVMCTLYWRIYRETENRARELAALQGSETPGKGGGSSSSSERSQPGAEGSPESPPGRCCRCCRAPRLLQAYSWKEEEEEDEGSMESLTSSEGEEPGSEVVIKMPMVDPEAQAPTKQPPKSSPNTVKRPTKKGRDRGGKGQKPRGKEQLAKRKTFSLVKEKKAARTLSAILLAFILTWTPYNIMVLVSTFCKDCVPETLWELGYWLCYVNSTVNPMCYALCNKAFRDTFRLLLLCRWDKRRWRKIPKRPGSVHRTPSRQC
pEC50: −log10 of the molar value.
EXPERIMENTAL ENDPOINT: pEC50

# MOLECULE, MEASUREMENT
records = [
    ("C#C/C(C)=C/COC(=O)C1CN=CNC1 (centres undefined)", 4.10),
    ("CCc1noc(C2CN=CNC2)n1 (centres undefined)", 4.92),
    ("C#CCOC(=O)C1CCC(N)=NC1 (centres undefined)", 3.94),
    ("Cc1noc(C2=CCCN(C)C2)n1", 4.92),
]
